tested on: Target C; assay: HiBiT protein abundance assay, Target C; format: cell-based, human; details: Homo sapiens, K562, 24 h, Table 13A, modified K562 cells
pIC50: −log10 of the molar value.
MEASURED_PARAMETER: pIC50

Past entries and their recorded results:
COMPOUND	pIC50
CN(c1ccc(-c2ccc(-c3cn[nH]c3)c3cn[nH]c23)nn1)[C@H]1C[C@]2(C)CC[C@](C)(C1)N2 [Compound 146]	> 7.00
CN(c1ccc(-c2ccc(-c3cnn(C)c(=O)c3)c3scnc23)nn1)C1CC(C)(C)NC(C)(C)C1 [Compound 211]	6.00 to 7.00
Cn1cc(-c2ccc(-c3ccc(O[C@@H]4C[C@H]5CC[C@@H](C4)N5)nn3)c3[nH]ncc23)nn1 [Compound 323]	5.00 to 6.00

Incoming: Report pIC50 for CN1C[C@@H]2CN(c3ccc(-c4ccc(-c5cn[nH]c5)c5cn[nH]c45)nn3)C[C@@H]2C1 [Compound 255] tested on Target C.
Outgoing: < 5.00

Incoming: Form field: pIC50 recorded for Cc1cc(-c2ccc(-c3ccc(N(C)[C@@H]4C[C@H]5CC[C@@H](C4)N5)nn3)c3[nH]ncc23)cnn1 [Compound 383] with Target C (enter value)
Outgoing: 5.00 to 6.00

Incoming: Hello, I am looking for reported pIC50 with Target C for c1nc2c(-c3cn[nH]c3)ccc(-c3ccc(O[C@@H]4C[C@H]5COC[C@@H](C4)N5)nn3)c2s1 [Compound 357] . Could you help?
Outgoing: 6.00 to 7.00

Incoming: Find pIC50 (Target C) for the entry CC1(C)CC(Oc2ccc(-c3ccc(-c4cn[nH]c4)c4ncsc34)nn2)CCN1 (stereo not shown) [Compound 182]
Outgoing: 6.00 to 7.00

Incoming: Lab request: please report pIC50 under test system Target C for Fc1cc(-c2ccc(O[C@@H]3C[C@H]4CC[C@@H](C3)N4)nn2)c2[nH]ncc2c1-c1cn[nH]c1 [Compound 216]
Outgoing: 6.00 to 7.00

Incoming: GET /values?readout=pIC50&system=Target C&item= c1n[nH]cc1-c1ccc(-c2ccc(NC3CCNCC3)nn2)c2[nH]ncc12 [Compound 263]
Outgoing: < 5.00

Incoming: Request - read-out pIC50 | tested on Target C | compound c1nc2c(-c3cn[nH]c3)ccc(-c3ccc(N4CC5(CCNCC5)C4)nn3)c2s1 [Compound 197]
Outgoing: 5.00 to 6.00

Incoming: # query: pIC50 | item c1cnn(-c2ccc(-c3cnc(N4CCC(NC5CC5)C4)nn3)c3cn[nH]c23)c1 (stereo not shown) [Compound 484] | system: Target C
Outgoing: 5.00 to 6.00

Incoming: Which pIC50 is reported with Target C for this entry: CCN(c1ccc(-c2ccc(-c3cn[nH]c3)c3ncsc23)nn1)C1CCNCC1 [Compound 224] ?
Outgoing: 5.00 to 6.00

Incoming: Notebook entry, Target C assay: pIC50 of CN1CCCC2(CCN2c2ccc(-c3ccc(-c4cn[nH]c4)c4ncsc34)nn2)C1 (stereo not shown) [Compound 288] = ?
Outgoing: 5.00 to 6.00
